tested on: Citro; assay: in vitro antibacterial activity, agar dilution (Citro); type: cell-based; parameters: unit not given here; settings: strain CF17
measured property: minimum inhibitory concentration
Give your answer as a number; write no unit.

Enquiry: Respond only with minimum inhibitory concentration recorded for Cn1c([N+](=O)[O-])cnc1-c1nc(C2=C(C(=O)O)N3C(=O)[C@@H](NC(=O)/C(=N\O)c4csc(N)n4)[C@H]3CC2)cs1
Return: 4

Enquiry: Respond only with minimum inhibitory concentration recorded for CO/N=C(\C(=O)N[C@@H]1C(=O)N2C(C(=O)O)=C(c3csc(N)n3)CC[C@H]12)c1csc(N)n1
Return: 8

Enquiry: Respond only with minimum inhibitory concentration recorded for CO/N=C(\C(=O)N[C@@H]1C(=O)N2C(C(=O)O)=C(c3csc(-c4ccc(O)c(O)c4)n3)CC[C@H]12)c1csc(N)n1
Return: 4

Enquiry: Respond only with minimum inhibitory concentration recorded for CO/N=C(\C(=O)N[C@@H]1C(=O)N2C(C(=O)O)=C(c3csc(-c4ccc(F)cc4)n3)CC[C@H]12)c1csc(N)n1
Return: 4

Enquiry: Respond only with minimum inhibitory concentration recorded for CO/N=C(\C(=O)N[C@@H]1C(=O)N2C(C(=O)O)=C(c3csc(-c4ccccc4)n3)CC[C@H]12)c1csc(N)n1
Return: 4

Enquiry: Respond only with minimum inhibitory concentration recorded for CO/N=C(\C(=O)N[C@@H]1C(=O)N2C(C(=O)O)=C(c3csc(C(c4ccccc4)c4ccccn4)n3)CC[C@H]12)c1csc(N)n1 (some centres unmarked)
Return: 32

Enquiry: Respond only with minimum inhibitory concentration recorded for CO/N=C(\C(=O)N[C@@H]1C(=O)N2C(C(=O)O)=C(c3csc(-c4ccc([N+](=O)[O-])cc4)n3)CC[C@H]12)c1csc(N)n1
Return: 2

###

tested on: Streptococcus D; experiment: in vitro antibacterial activity, agar dilution (Streptococcus D); format: cell-based; design: unit not given here; conditions: strain 2041
Would you kindly list minimum inhibitory concentration for each of these compounds?
Give your answer as a number; write no unit.

Enquiry: Give reported minimum inhibitory concentration for CO/N=C(\C(=O)N[C@@H]1C(=O)N2C(C(=O)O)=C(c3csc(-c4ccc(F)cc4)n3)CC[C@H]12)c1csc(N)n1 (Streptococcus D)
Return: 4

Enquiry: Give reported minimum inhibitory concentration for CO/N=C(\C(=O)N[C@@H]1C(=O)N2C(C(=O)O)=C(c3csc(-c4ccccc4)n3)CC[C@H]12)c1csc(N)n1 (Streptococcus D)
Return: 4

Enquiry: Give reported minimum inhibitory concentration for CO/N=C(\C(=O)N[C@@H]1C(=O)N2C(C(=O)O)=C(c3csc(N)n3)CC[C@H]12)c1csc(N)n1 (Streptococcus D)
Return: 8

Enquiry: Give reported minimum inhibitory concentration for CON=C(C(=O)NC1C(=O)N2C(C(=O)[O-])=C(c3csc(-c4ccc[n+](C)c4)n3)CCC12)c1csc(N)n1 (centres unmarked) (Streptococcus D)
Return: 128

###

System: E. coli
Assay: in vitro antibacterial activity, agar dilution (E. coli)
Assay type: cell-based
Parameters: unit not given here
Conditions: strain TEM
Experimental: *minimum inhibitory concentrations were determined by the Agardilution
measured property: minimum inhibitory concentration

Enquiry: Respond only with minimum inhibitory concentration recorded for CO/N=C(\C(=O)N[C@@H]1C(=O)N2C(C(=O)O)=C(c3csc(-c4ccc([N+](=O)[O-])cc4)n3)CC[C@H]12)c1csc(N)n1 [Example 35]
Return: .5

Enquiry: Respond only with minimum inhibitory concentration recorded for CO/N=C(\C(=O)N[C@@H]1C(=O)N2C(C(=O)O)=C(c3csc(N)n3)CC[C@H]12)c1csc(N)n1 [Example 39]
Return: .5

Enquiry: Respond only with minimum inhibitory concentration recorded for Nc1nc(C2=C(C(=O)O)N3C(=O)[C@@H](NC(=O)[C@H](N)c4ccccc4)[C@H]3CC2)cs1 [Example 41]
Return: 64

###

system: Staphylococcus Aureus; test: in vitro antibacterial activity, agar dilution (Staphylococcus aureus); format: cell-based; parameters: unit not given here; details: strain V41
measured property: minimum inhibitory concentration
Give your answer as a number; write no unit.

Enquiry: Respond only with minimum inhibitory concentration recorded for CON=C(C(=O)NC1C(=O)N2C(C(=O)[O-])=C(c3csc(-c4ccc[n+](C)c4)n3)CCC12)c1csc(N)n1 (centres unmarked) [Example 34]
Return: 8

Enquiry: Respond only with minimum inhibitory concentration recorded for CO/N=C(\C(=O)N[C@@H]1C(=O)N2C(C(=O)O)=C(c3csc(-c4ncc([N+](=O)[O-])s4)n3)CC[C@H]12)c1csc(N)n1 [Example 36]
Return: 2

Enquiry: Respond only with minimum inhibitory concentration recorded for CO/N=C(\C(=O)N[C@@H]1C(=O)N2C(C(=O)O)=C(c3csc(-c4ccc(F)cc4)n3)CC[C@H]12)c1csc(N)n1 [Example 37]
Return: 2

Enquiry: Respond only with minimum inhibitory concentration recorded for CO/N=C(\C(=O)N[C@@H]1C(=O)N2C(C(=O)O)=C(c3csc(-c4ccco4)n3)CC[C@H]12)c1csc(N)n1 [Example 32]
Return: 8

Enquiry: Respond only with minimum inhibitory concentration recorded for CO/N=C(\C(=O)N[C@@H]1C(=O)N2C(C(=O)O)=C(c3csc(-c4ccc([N+](=O)[O-])cc4)n3)CC[C@H]12)c1csc(N)n1 [Example 35]
Return: 2

Enquiry: Respond only with minimum inhibitory concentration recorded for CO/N=C(\C(=O)N[C@@H]1C(=O)N2C(C(=O)O)=C(c3csc(N)n3)CC[C@H]12)c1csc(N)n1 [Example 39]
Return: 8

Enquiry: Respond only with minimum inhibitory concentration recorded for CO/N=C(\C(=O)N[C@@H]1C(=O)N2C(C(=O)O)=C(c3csc(C(c4ccccc4)c4ccccn4)n3)CC[C@H]12)c1csc(N)n1 (some centres unmarked) [Example 38]
Return: 32

Enquiry: Respond only with minimum inhibitory concentration recorded for CO/N=C(\C(=O)N[C@@H]1C(=O)N2C(C(=O)O)=C(c3csc(-c4ccccc4)n3)CC[C@H]12)c1csc(N)n1 [Example 31]
Return: 2

Enquiry: Respond only with minimum inhibitory concentration recorded for CO/N=C(\C(=O)N[C@@H]1C(=O)N2C(C(=O)O)=C(c3csc(-c4ccc(O)c(O)c4)n3)CC[C@H]12)c1csc(N)n1 [Example 40]
Return: 16

Enquiry: Respond only with minimum inhibitory concentration recorded for Nc1nc(C2=C(C(=O)O)N3C(=O)[C@@H](NC(=O)[C@H](N)c4ccccc4)[C@H]3CC2)cs1 [Example 41]
Return: 32

###

system: Serratia; experiment: in vitro antibacterial activity, agar dilution (Serratia); format: cell-based; design: unit not given here; settings: strain X99
Would you kindly list minimum inhibitory concentration for each of these compounds?
Give your answer as a number; write no unit.

Enquiry: Respond only with minimum inhibitory concentration recorded for CO/N=C(\C(=O)N[C@@H]1C(=O)N2C(C(=O)O)=C(c3csc(-c4ncc([N+](=O)[O-])s4)n3)CC[C@H]12)c1csc(N)n1 [Example 36]
Return: 1

Enquiry: Respond only with minimum inhibitory concentration recorded for CO/N=C(\C(=O)N[C@@H]1C(=O)N2C(C(=O)O)=C(c3csc(-c4ccccc4)n3)CC[C@H]12)c1csc(N)n1 [Example 31]
Return: 4

Enquiry: Respond only with minimum inhibitory concentration recorded for CO/N=C(\C(=O)N[C@@H]1C(=O)N2C(C(=O)O)=C(c3csc(N)n3)CC[C@H]12)c1csc(N)n1 [Example 39]
Return: 1

Enquiry: Respond only with minimum inhibitory concentration recorded for CO/N=C(\C(=O)N[C@@H]1C(=O)N2C(C(=O)O)=C(c3csc(-c4ccco4)n3)CC[C@H]12)c1csc(N)n1 [Example 32]
Return: 14

###

system: Streptococcus D; experiment: in vitro antibacterial activity, agar dilution (Streptococcus D); assay type: cell-based; design: unit not given here; conditions: strain X66
measured property: minimum inhibitory concentration

Enquiry: Respond only with minimum inhibitory concentration recorded for CO/N=C(\C(=O)N[C@@H]1C(=O)N2C(C(=O)O)=C(c3csc(-c4ccc([N+](=O)[O-])cc4)n3)CC[C@H]12)c1csc(N)n1
Return: > 128

Enquiry: Respond only with minimum inhibitory concentration recorded for CO/N=C(\C(=O)N[C@@H]1C(=O)N2C(C(=O)O)=C(c3csc(-c4ccc(F)cc4)n3)CC[C@H]12)c1csc(N)n1
Return: > 128

Enquiry: Respond only with minimum inhibitory concentration recorded for CO/N=C(\C(=O)N[C@@H]1C(=O)N2C(C(=O)O)=C(c3csc(N)n3)CC[C@H]12)c1csc(N)n1
Return: > 128

Enquiry: Respond only with minimum inhibitory concentration recorded for Cn1c([N+](=O)[O-])cnc1-c1nc(C2=C(C(=O)O)N3C(=O)[C@@H](NC(=O)/C(=N\O)c4csc(N)n4)[C@H]3CC2)cs1
Return: 128

Enquiry: Respond only with minimum inhibitory concentration recorded for CO/N=C(\C(=O)N[C@@H]1C(=O)N2C(C(=O)O)=C(c3csc(-c4ccccc4)n3)CC[C@H]12)c1csc(N)n1
Return: > 128

###

test system: Salmonella; assay: in vitro antibacterial activity, agar dilution (Salmonella); format: cell-based; parameters: unit not given here; conditions: strain 1335
measured property: minimum inhibitory concentration
Give your answer as a number; write no unit.

Enquiry: Respond only with minimum inhibitory concentration recorded for Nc1nc(C2=C(C(=O)O)N3C(=O)[C@@H](NC(=O)[C@H](N)c4ccccc4)[C@H]3CC2)cs1
Return: 128

Enquiry: Respond only with minimum inhibitory concentration recorded for CO/N=C(\C(=O)N[C@@H]1C(=O)N2C(C(=O)O)=C(c3csc(-c4ccco4)n3)CC[C@H]12)c1csc(N)n1
Return: 4

Enquiry: Respond only with minimum inhibitory concentration recorded for Cn1c([N+](=O)[O-])cnc1-c1nc(C2=C(C(=O)O)N3C(=O)[C@@H](NC(=O)/C(=N\O)c4csc(N)n4)[C@H]3CC2)cs1
Return: 2

Enquiry: Respond only with minimum inhibitory concentration recorded for CO/N=C(\C(=O)N[C@@H]1C(=O)N2C(C(=O)O)=C(c3csc(-c4ccc([N+](=O)[O-])cc4)n3)CC[C@H]12)c1csc(N)n1
Return: 4

Enquiry: Respond only with minimum inhibitory concentration recorded for CO/N=C(\C(=O)N[C@@H]1C(=O)N2C(C(=O)O)=C(c3csc(-c4ccccc4)n3)CC[C@H]12)c1csc(N)n1
Return: 4
